system: Drosophila imaginal morphogenesis protein-late 2 protein (Imp-L2) (Drosophila melanogaster) (UniProt Q09024)
Sequence (Q09024 26-267): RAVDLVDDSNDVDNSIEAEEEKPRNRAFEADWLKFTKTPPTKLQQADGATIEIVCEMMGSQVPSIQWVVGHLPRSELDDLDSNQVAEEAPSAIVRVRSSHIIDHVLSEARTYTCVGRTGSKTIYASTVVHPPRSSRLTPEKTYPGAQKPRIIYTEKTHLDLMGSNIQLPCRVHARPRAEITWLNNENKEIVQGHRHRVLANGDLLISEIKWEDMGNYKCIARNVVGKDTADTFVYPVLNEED
assay-summary: ITC; Imp-L2 (12.8-22.6 uM) in the cell, hormone about tenfold greater injected; 50 mM Tris, 150 mM NaCl, pH 7.4; 25 C; hormone concentrations adjusted to a 1:1 stoichiometry
property-label: Kd (nM)
Quick reminder: number only, in nM, skip the unit.

Per the records, this binder ( Drosophila insulin-like peptide 5, C4 variant (B2-B29) (ligand) chain 1: NSLRACGPALMDMLRVACPNGFNSMFAK chain 2: DFRGVVDSCCRNSCSFSTLRAYCDS ) has Kd equal to 8
